In this section we review reported pKd values for a set of binders.
TARGET SYSTEM: T1, anti-FXI/FXIa antibody NOV1401
T1 construct: It was amine-coupled to the chip in SPR; In SET it was titrated in solution, and biotinylated NOV1401 served only as the capture reagent on the plate
T1 sequence (VH, as listed by the source, chain 1 of 2): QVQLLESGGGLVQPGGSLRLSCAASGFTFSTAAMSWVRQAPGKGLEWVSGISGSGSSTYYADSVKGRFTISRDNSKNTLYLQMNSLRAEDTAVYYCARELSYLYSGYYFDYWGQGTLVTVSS
T1 sequence (VL, as listed by the source, chain 2 of 2): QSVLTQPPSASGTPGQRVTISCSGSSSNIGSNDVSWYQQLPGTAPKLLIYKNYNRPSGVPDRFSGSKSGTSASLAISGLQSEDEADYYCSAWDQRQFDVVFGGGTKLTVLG
MEASUREMENT NOTES: SPR (ProteOn XPR36), NOV1401 amine-coupled on the chip, Fab as analyte 0.125-4 nM, Langmuir 1:1 fit, 25 C; average of n=2
# pKd is unitless: minus log10 of the molar concentration; print number only

# example entries with known answers
>>> measured_number("IDT7 anti-NOV1401 Fab (Fab, V domains shown, Human Fab; The heavy chain entry is VH-CH1 (Fd); also called antidote) VH: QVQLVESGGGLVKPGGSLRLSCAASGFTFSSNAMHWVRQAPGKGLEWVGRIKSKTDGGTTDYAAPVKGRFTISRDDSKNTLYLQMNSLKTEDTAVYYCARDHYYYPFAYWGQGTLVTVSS VL: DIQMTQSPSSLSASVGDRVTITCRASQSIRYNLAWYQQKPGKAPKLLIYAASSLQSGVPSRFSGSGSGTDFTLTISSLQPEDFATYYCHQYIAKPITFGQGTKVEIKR")
9.48
>>> measured_number("IDT9 anti-NOV1401 Fab (Fab, V domains shown, Human Fab; The heavy chain entry is VH-CH1 (Fd); also called antidote) VH: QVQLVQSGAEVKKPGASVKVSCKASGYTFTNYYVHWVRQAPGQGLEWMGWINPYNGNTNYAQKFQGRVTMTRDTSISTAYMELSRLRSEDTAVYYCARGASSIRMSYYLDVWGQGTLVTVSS VL: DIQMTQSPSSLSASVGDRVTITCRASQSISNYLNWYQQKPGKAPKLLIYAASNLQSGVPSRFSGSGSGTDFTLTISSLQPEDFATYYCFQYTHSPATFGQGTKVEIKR")
8.72
>>> measured_number("IDT3 anti-NOV1401 Fab (Fab, V domains shown, Human Fab; The heavy chain entry is VH-CH1 (Fd); also called antidote) VH: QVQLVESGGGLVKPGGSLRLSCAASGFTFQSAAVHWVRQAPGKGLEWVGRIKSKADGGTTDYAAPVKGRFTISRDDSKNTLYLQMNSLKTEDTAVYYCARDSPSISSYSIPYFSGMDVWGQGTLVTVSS VL: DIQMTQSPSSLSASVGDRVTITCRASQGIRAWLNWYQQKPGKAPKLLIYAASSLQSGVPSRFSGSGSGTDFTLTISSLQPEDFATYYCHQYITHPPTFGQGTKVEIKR")
9.62
>>> measured_number("IDT8 anti-NOV1401 Fab (Fab, V domains shown, Human Fab; The heavy chain entry is VH-CH1 (Fd); also called antidote) VH: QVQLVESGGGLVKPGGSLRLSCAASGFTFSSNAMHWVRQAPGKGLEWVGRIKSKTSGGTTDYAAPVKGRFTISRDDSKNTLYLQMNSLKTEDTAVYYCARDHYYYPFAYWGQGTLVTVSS VL: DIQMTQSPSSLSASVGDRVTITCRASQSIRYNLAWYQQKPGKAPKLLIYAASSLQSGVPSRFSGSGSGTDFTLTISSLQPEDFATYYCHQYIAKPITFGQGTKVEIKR")
8.67
>>> measured_number("IDT4 anti-NOV1401 Fab (Fab, V domains shown, Human Fab; The heavy chain entry is VH-CH1 (Fd); also called antidote) VH: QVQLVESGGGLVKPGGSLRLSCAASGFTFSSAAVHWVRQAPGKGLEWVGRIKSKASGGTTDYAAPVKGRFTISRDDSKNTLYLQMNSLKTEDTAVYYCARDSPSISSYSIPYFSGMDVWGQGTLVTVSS VL: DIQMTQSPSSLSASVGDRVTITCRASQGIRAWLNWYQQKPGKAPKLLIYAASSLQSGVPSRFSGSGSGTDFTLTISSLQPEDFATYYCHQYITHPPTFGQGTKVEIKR")
9.51

Prompt line: So what does the record say about pKd for IDT10 anti-NOV1401 Fab (Fab, V domains shown, Human Fab; The heavy chain entry is VH-CH1 (Fd); also called antidote) VH: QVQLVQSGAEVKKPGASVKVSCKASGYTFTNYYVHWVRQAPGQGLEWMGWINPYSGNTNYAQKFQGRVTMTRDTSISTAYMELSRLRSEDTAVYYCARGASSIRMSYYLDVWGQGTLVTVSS VL: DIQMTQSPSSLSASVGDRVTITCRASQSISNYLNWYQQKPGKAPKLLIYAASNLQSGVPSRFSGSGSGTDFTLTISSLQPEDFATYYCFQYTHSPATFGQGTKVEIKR ?
Response line: 8.22

Just for reference, patent US20200317816A1 is where these values come from.
